// data source = patent US8614178B2

# Procedure summary: Refractive index determination
# Experimental parameters: neat SFA
Measurement kind: Refractive index

>  <Compound string>
CCCCCCCCCC(F)(F)C(F)(F)C(F)(F)C(F)(F)C(F)(F)C(F)(F)F

>  <Refractive index>
1.3494

$$$$
>  <Compound string>
CCCCC(F)(F)C(F)(F)C(F)(F)C(F)(F)C(F)(F)C(F)(F)F

>  <Refractive index>
1.306

$$$$
>  <Compound string>
CCCCCC(F)(F)C(F)(F)C(F)(F)C(F)(F)F

>  <Refractive index>
1.3204

$$$$
>  <Compound string>
CCCCCCCCC(F)(F)C(F)(F)C(F)(F)C(F)(F)F

>  <Refractive index>
1.348

$$$$
>  <Compound string>
CCC(F)(F)C(F)(F)C(F)(F)C(F)(F)C(F)(F)C(F)(F)F

>  <Refractive index>
1.295

$$$$
>  <Compound string>
CCCCC(F)(F)C(F)(F)C(F)(F)C(F)(F)F

>  <Refractive index>
1.308

$$$$
